- measurement-notes: Solubility in water
- Format: physicochemical
- measurement-conditions: Table 7, PEGylated and Sar/Ala substitution peptides
Square brackets hold non-standard residues; d marks the D form. Peptide text beside a SMILES is read from it. Sar = CNCC(=O)O
property-label: Solubility in water

CC[C@H](C)[C@H](N)C(=O)N[C@@H](C)C(=O)N[C@@H](CC(C)C)C(=O)N[C@H](C(=O)N[C@@H](CC(C)C)C(=O)N[C@@H](CCC(=O)O)C(=O)N1CCC[C@H]1C(=O)N[C@H](C(=O)N(C)CC(=O)N[C@@H](C)C(=O)N[C@@H](CCC(N)=O)C(=O)N[C@@H](CCC(=O)O)C(=O)N[C@@H](CCCNC(=N)N)C(=O)N[C@@H](C)C(=O)N[C@@H](C)C(=O)O)[C@@H](C)CC)[C@@H](C)CC [PA-C9SarC10A] (H-IALILEPI[Sar]AQERAA-OH) = Yes
CC[C@H](C)[C@H](N)C(=O)N[C@@H](C)C(=O)N[C@@H](CC(C)C)C(=O)N[C@H](C(=O)N[C@@H](CC(C)C)C(=O)N[C@@H](CCC(=O)O)C(=O)N(C)CC(=O)N[C@H](C(=O)N[C@@H](CS)C(=O)N[C@@H](CS)C(=O)N(C)CC(=O)N[C@@H](CCC(=O)O)C(=O)N[C@@H](CCCNC(=N)N)C(=O)N[C@@H](C)C(=O)N[C@@H](C)C(=O)O)[C@@H](C)CC)[C@@H](C)CC [Peptide Q11SarP7Sar, IALILE(Sar)ICC(Sar)ERAA] (H-IALILE[Sar]ICC[Sar]ERAA-OH; N-terminus and C-terminus assumed) = Yes

Reference source: patent US12297235B2
